Quick reference for Kd among some binders
test_target: T1, Cynomolgus CD3εδ Fc heterodimer (Cy CD3ε Fc + CD3δ Fc-HIS) (cynomolgus, UniProt Q95LI5 22-117; Q95LI8 22-100)
T1 construct: range 22-117;range 22-100; Made in HEK 293 cells with a heterologous signal peptide; also called Cy CD3εδ-Fc; cyno CD3εδ Fc; not shown: Fc; Fc followed by HIS tag
T1 sequence (Q95LI5 22-117, stated change not applied, form in doubt, chain 1 of 2): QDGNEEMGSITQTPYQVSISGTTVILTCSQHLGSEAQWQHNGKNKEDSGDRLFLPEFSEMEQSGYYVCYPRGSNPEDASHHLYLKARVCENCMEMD
T1 sequence (Q95LI8 22-100, stated change not applied, form in doubt, chain 2 of 2): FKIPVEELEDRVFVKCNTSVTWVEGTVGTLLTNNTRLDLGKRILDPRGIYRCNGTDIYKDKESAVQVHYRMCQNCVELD
procedure_text: BLI (Octet), Fab monovalent, pH 6.0
Use nM as the unit, but write only the number.

Consider the worked cases shown below.
- Antibody No. A003 (ADI-26913) Fab (Fab, V domains shown, Fab by papain digestion of the IgG1) VH: QVQLVQSGAEVKKPGASVKVSCKASGFNIKDYYMHWVRQAPGQRLEWMGWIDLENANTIYDAKFQGRVTITRDTSASTAYMELSSLRSEDTAVYYCARDQYGRYFYDVWGQGTLVTVSS VL: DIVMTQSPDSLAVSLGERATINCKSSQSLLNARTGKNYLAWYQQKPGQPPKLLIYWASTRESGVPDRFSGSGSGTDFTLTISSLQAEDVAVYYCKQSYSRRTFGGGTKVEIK: 32
- Antibody No. V013 (ADI-70330) Fab (Fab, V domains shown, Fab by papain digestion of the IgG1) VH: QVQLVQSGAEVKKPGASVKVSCKASGFNIDDYYMHWVRQAPGQRLEWIGWIDLENANTVDDAKFQGRVTITRDTSASTAYMELSSLRSEDTAVYYCARDAYGRYFYDVWGQGTLVTVSS VL: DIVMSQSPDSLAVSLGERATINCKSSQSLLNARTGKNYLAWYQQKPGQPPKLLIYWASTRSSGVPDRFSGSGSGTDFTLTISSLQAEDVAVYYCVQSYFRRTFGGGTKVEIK: 1.9

Please turn your attention to the following entry.
Query block: // returns reported Kd for input Antibody No. V009 (ADI-70326) Fab (Fab, V domains shown, Fab by papain digestion of the IgG1) VH: QVQLVQSGAEVKKPGASVKVSCKASGFDIKDYYMHWVRQAPGQRLEWIGWIELENADTVYDAKFQGRVTITRDTSASTAYMELSSLRSEDTAVYYCARDAYGRYFYDVWGQGTLVTVSS VL: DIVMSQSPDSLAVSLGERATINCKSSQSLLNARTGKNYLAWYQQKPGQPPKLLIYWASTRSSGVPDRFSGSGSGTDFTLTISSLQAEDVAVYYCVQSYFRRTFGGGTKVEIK
Result block: 1.6

The origin of these recorded values is patent US20240317858A1.
